# Target of assay: DLG1_2, Q12959
# Sequence (Q12959 314-412): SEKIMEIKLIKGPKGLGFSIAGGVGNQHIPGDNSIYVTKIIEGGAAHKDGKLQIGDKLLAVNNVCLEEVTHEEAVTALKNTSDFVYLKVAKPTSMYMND
# Experimental details: holdup assay
# Set-up: key: below the threshold = too weak to quantify, mostly under pKd 3.1 to 4
# Setup conditions: plain residues with an end cap or a label only (N-terminal biotin on a linker: ado-ado)
Mark class 1 for reported pKd of 4 or greater; mark class 0 for anything smaller.

Binder | Class assignment
VDSTVKVWTC [TRAF7, Q6Q0C0] | class 0
TASPAKETSF [SLC2A7, Q6PXP3] | class 1
MLSKQSESAI [FLVCR1, Q9Y5Y0] | class 0
SKENVQETQI [LRRC4B, Q9NT99] | class 1
SAKVRTVTSV [RASL11B, Q9BPW5] | class 1
RRLPGKETMA [GRIK2, Q13002] | class 0
RRISSLESEV [GRIN2C, Q14957] | class 1
FNSYSLTGYV [CLDN2, P57739] | class 0
